B1: Twister Ribozyme (parent)
chain: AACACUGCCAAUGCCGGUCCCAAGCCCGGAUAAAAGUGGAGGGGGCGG

variants of: B1; test: self-cleavage, relative activity (ratio to wild type); higher = more cleavage; co-transcriptional
Would you mind telling me the reported self-cleavage of each entry?
One number for each entry.

Sample records with self-cleavage:
# var, self-cleavage
data = [
    ("U12C C27A", 0.577),
    ("G17A U37G", 0.175),
    ("C9U G42U", 0.102),
    ("C19G G43A", 0.242),
]

Provide reported self-cleavage for each item, in the same order as listed.
1. A22U C26A
2. A23C G44U
3. G13A A32G
4. G17A C26A
5. C5A U37A
6. C3G A23C

Result ::
[0.11, 0.195, 0.882, 0.78, 0.547, 0.137]

Cited source: the RNAGym collection of RNA variant scans (doi:10.7554/elife.80360)
